TARGET OR TEST SYSTEM: T1, Activin A (UniProt P08476 311-426)
T1 sequence (looked up): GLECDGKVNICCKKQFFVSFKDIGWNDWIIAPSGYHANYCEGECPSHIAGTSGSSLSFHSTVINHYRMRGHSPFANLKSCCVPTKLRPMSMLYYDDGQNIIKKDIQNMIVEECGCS
PROCEDURE SUMMARY: cell-based or functional assay
The label is Satisfied for IC50, SBE-luciferase reporter in HEK293 cells below 0.6 µg/mL and Not satisfied for IC50, SBE-luciferase reporter in HEK293 cells equal to or exceeding 0.6 µg/mL.

Look over these answered cases.
ActRIIA-A8 (SEQ ID NO: 110) chimera-Fc protein (Fc fusion, Tested as chimera-Fc protein; not shown: linker (if any) and Fc domain) GAILGRSETQECLFFNANWEKDRTNQTGVEPCYGDKDKRRHCFATWKNISGSIEIVKQGCWLDDINCYDRTDCVEKKDSPEVYFCCCEGNMCNEKFSYFPEAGGPEVTYEPPPTAPT
Satisfied
ActRIIA-B1B7 (SEQ ID NO: 101) chimera-Fc protein (Fc fusion, Tested as chimera-Fc protein; also called ActRIIA-B1β7; not shown: linker (if any) and Fc domain) GAILGRSETQECIYYNANWEKDRTNQTGVEPCYGDKDKRRHCFATWKNISGSIEIVKQGCWLDDINCYDRTDCVEKKDSPEVYFCCCEGNMCNERFTHLPEMEVTQPTS
Not satisfied
ActRIIA-B1B4 (SEQ ID NO: 102) chimera-Fc protein (Fc fusion, Tested as chimera-Fc protein; also called ActRIIA-B1β4; not shown: linker (if any) and Fc domain) GAILGRSETQECIYYNANWEKDRTNQTGVEPCYGDKDKRRHCFATWKNISGTIELVKKGCWLDDINCYDRTDCVEKKDSPEVYFCCCEGNMCNEKFSYFPEMEVTQPTS
Not satisfied

IC50, SBE-luciferase reporter in HEK293 cells strictly < 0.6 µg/mL for this binder? ActRIIA-A5 (SEQ ID NO: 107) chimera-Fc protein (Fc fusion, Tested as chimera-Fc protein; not shown: linker (if any) and Fc domain) GAILGRSETQECLFFNANWEKDRTNQTGVEPCYGDKDKRRHCFATWKNISGSIEIVKQGCWLDDFNCYDRQECVEKKDSPEVYFCCCEGNMCNEKFSYFPEMEVTQPTS
Satisfied

Answer whether the binder ActRIIA-B4 (SEQ ID NO: 98) chimera-Fc protein (Fc fusion, Tested as chimera-Fc protein; not shown: linker (if any) and Fc domain) GAILGRSETQECLFFNANWEKDRTNQTGVEPCYGDKDKRRHCFATWKNISGTIELVKKGCWLDDINCYDRTDCVEKKDSPEVYFCCCEGNMCNEKFSYFPEMEVTQPTS has IC50, SBE-luciferase reporter in HEK293 cells strictly less than 0.6 µg/mL
Satisfied

Report whether reported IC50, SBE-luciferase reporter in HEK293 cells is lower than 0.6 µg/mL (strictly) for ActRIIA-B7 (SEQ ID NO: 100) chimera-Fc protein (Fc fusion, Tested as chimera-Fc protein; not shown: linker (if any) and Fc domain) GAILGRSETQECLFFNANWEKDRTNQTGVEPCYGDKDKRRHCFATWKNISGSIEIVKQGCWLDDINCYDRTDCVEKKDSPEVYFCCCEGNMCNERFTHLPEMEVTQPTS
Not satisfied

Consider ActRIIA-A3 (SEQ ID NO: 106) chimera-Fc protein (Fc fusion, Tested as chimera-Fc protein; not shown: linker (if any) and Fc domain) GAILGRSETQECLFFNANWEKDRTNQTGVEPCEGEQDKRRHCFATWKNISGSIEIVKQGCWLDDINCYDRTDCVEKKDSPEVYFCCCEGNMCNEKFSYFPEMEVTQPTS . Does its IC50, SBE-luciferase reporter in HEK293 cells lie strictly below 0.6 µg/mL?
Not satisfied

Is it true that IC50, SBE-luciferase reporter in HEK293 cells reported for ActRIIA-A6 (SEQ ID NO: 108) chimera-Fc protein (Fc fusion, Tested as chimera-Fc protein; not shown: linker (if any) and Fc domain) GAILGRSETQECLFFNANWEKDRTNQTGVEPCYGDKDKRRHCFATWKNISGSIEIVKQGCWLDDINCYDRTDCVEKEENPQVYFCCCEGNMCNEKFSYFPEMEVTQPTS is less than 0.6 µg/mL?
Satisfied
